Give Tumor Volume (Day 15) for every item shown.
tested on: human EBC-1 cell subcutaneous xenograft model; assay: In vivo anti-tumor assessment in EBC-1 cell xenograft tumor mouse model; set-up: species or system mice; details: 10 mg/kg P.O. QD × 15 days, Day 15
Numbers only, in mm^3.

// solved cases for Tumor Volume (Day 15) follow
compound	measured.value
CNC(=S)c1ccc(-c2cnc3ncc(Cc4ccc5ncccc5c4)n3n2)cc1F [Compound 1]	136
CNC(=O)c1ccc(-c2cnc3ncc(Cc4ccc5ncccc5c4)n3n2)cc1F [Capmatinib, reference compound]	225
CNC(=S)c1ccc(-c2cnc3ncc(Cc4cc(C(F)(F)F)c5ncccc5c4)n3n2)cc1F [Compound 16]	162

Attention now shifts to the item below.
Request: Output reported Tumor Volume (Day 15) of the compound CNC(=S)c1ccc(-c2cnc3ncc(Cc4ccc5nccnc5c4)n3n2)cc1F [Compound 17] on human EBC-1 cell subcutaneous xenograft model.
Result: 184

---

Give LD50 for every item shown.
test: in vivo; details: both, Kunming, mouse, po
Your answer should be a number followed by the unit of measure.

// solved cases for LD50 follow
compound	LD50
CN(C)C(=S)c1ccc(-c2cnc3ncc(Cc4ccc5ncccc5c4)n3n2)cc1F	284 mg/kg
CNC(=S)c1ccc(-c2cnc3ncc(Cc4ccc5c(c4)OCO5)n3n2)cc1F	305 mg/kg
CC(C)NC(=S)c1ccc(-c2cnc3ncc(Cc4ccc5ncccc5c4)n3n2)cc1F	291 mg/kg
CNC(=S)c1ccc(-c2cnc3ncc(Cc4ccc5ncccc5c4)n3n2)cc1NC	292 mg/kg
CNC(=O)c1ccc(-c2cnc3ncc(Cc4ccc5ncccc5c4)n3n2)cc1F [Capmatinib, reference compound]	164 mg/kg
CNC(=S)c1ccc(-c2cnc3ncc(Cc4ccc5nccnc5c4)n3n2)cc1F	318 mg/kg
CNC(=S)c1ccc(-c2cnc3ncc(Cc4ccc5ncccc5c4)n3n2)cc1O	296 mg/kg
Fc1cc(-c2cnc3ncc(Cc4ccc5ncccc5c4)n3n2)ccc1C(=S)NC1CC1	320 mg/kg

Attention now shifts to the item below.
Request: For the compound `CNC(=S)c1ccc(-c2cnc3ncc(Cc4ccc5ncccc5c4)n3n2)cc1OC` , give its measured LD50 value.
Result: 286 mg/kg

---

system: SPF Kunming mice; conditions: mouse, in vivo, po
Give LD50 for every item shown.
One number for each entry, in mg/kg.

// solved cases for LD50 follow
molecule	measured.parameter	measured.value
CNC(=S)c1ccc(-c2cnc3ncc(Cc4ccc5ncccc5c4)n3n2)cc1F	LD50	293
CNC(=S)c1ccc(-c2cnc3ncc(Cc4cc(C(F)(F)F)c5ncccc5c4)n3n2)cc1F	LD50	296
CNC(=S)c1ccc(-c2cnc3ncc(C(N)c4ccc5ncccc5c4)n3n2)cc1F (stereo not drawn)	LD50	295
CNC(=S)c1ccc(-c2cnc3ncc(C(O)c4ccc5ncccc5c4)n3n2)cc1F (stereo not drawn)	LD50	298
CNC(=S)c1ccc(-c2cnc3ncc(Cc4cc(Cl)c5ncccc5c4)n3n2)cc1F	LD50	305

Attention now shifts to the item below.
Request: For the molecule `CNC(=S)c1ccc(-c2cnc3ncc(C(F)(F)c4ccc5ncccc5c4)n3n2)cc1F` , give its measured LD50 value.
Result: 294

---

Give IC50 for every item shown.
target: c-MET (Homo sapiens (Human), UniProt P08581); test: c-MET kinase inhibitory activity (ELISA, poly(Glu,Tyr) substrate); type: biochemical; settings: ATP 4 μM, 37° C. 1 h; read-out: c-MET kinase inhibitory enzymatic activity IC50
Sequence (P08581 25-1390): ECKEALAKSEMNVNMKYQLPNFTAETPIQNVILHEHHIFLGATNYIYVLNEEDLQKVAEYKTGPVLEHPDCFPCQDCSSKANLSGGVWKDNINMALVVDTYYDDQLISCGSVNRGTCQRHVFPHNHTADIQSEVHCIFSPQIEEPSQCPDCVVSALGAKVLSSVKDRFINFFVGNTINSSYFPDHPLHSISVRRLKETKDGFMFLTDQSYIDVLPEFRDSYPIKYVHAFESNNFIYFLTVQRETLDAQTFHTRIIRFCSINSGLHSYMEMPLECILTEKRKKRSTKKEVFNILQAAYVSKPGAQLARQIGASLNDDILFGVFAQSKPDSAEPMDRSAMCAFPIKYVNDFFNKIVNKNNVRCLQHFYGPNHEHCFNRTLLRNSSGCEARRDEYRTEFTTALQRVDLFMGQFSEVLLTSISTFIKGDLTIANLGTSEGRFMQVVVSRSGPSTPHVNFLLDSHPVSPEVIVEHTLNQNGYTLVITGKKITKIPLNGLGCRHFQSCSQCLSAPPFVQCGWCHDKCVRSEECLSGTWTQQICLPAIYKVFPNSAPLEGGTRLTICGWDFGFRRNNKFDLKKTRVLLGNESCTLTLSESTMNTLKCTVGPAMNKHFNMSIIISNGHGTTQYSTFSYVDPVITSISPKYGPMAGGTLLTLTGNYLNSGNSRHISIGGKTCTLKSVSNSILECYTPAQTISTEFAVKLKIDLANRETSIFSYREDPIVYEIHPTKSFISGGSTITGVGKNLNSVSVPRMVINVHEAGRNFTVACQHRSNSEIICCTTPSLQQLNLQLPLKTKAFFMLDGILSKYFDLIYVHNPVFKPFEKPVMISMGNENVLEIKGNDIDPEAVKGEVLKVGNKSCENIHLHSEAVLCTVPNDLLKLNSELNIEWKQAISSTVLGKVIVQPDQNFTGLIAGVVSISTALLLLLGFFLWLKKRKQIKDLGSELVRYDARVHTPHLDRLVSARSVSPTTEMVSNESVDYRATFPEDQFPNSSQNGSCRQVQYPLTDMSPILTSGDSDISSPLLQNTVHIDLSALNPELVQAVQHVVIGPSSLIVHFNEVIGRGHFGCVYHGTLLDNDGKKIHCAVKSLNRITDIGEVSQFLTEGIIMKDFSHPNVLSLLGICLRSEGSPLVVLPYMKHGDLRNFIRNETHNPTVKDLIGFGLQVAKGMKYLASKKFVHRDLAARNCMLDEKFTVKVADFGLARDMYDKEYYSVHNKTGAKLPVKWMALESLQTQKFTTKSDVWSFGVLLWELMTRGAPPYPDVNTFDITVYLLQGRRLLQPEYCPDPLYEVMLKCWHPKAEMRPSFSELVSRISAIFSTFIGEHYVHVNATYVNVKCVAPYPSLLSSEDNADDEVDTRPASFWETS
Answers are plain numbers, in pM.

entry.smiles	IC50 [pM]
CNC(=S)c1ccc(-c2cnc3ncc(Cc4ccc5ncccc5c4)n3n2)cc1N	1.7
CNC(=S)c1ccc(-c2cnc3ncc(Cc4ccc5scnc5c4)n3n2)cc1F	1.9
CNC(=S)c1ccc(-c2cnc3ncc(Cc4ccc5ncccc5c4)n3n2)cc1NC	1.6

Batch request: IC50 for each of the following molecules.
1. CNC(=S)c1ccc(-c2cnc3ncc(Cc4cc(F)c5ncccc5c4)n3n2)cc1F
2. CNC(=S)c1ccc(-c2cnc3ncc(Cc4ccc5ncccc5c4)n3n2)cc1O
3. CNC(=S)c1cc(F)c(-c2cnc3ncc(Cc4ccc5ncccc5c4)n3n2)cc1F
4. CNC(=S)c1ccc(-c2cnc3ncc(Cc4ccc5occc5c4)n3n2)cc1F
5. CNC(=S)c1ccc(-c2cnc3ncc(Cc4cc(C(F)(F)F)c5ncccc5c4)n3n2)cc1F

Result:
1.7
2.5
1.5
1.3
1.5
